tgt: T1, full length recombinant human 2N4R tau (human, UniProt P10636 1-758)
T1 construct: bought from rPeptide; pHrodo Red maleimide-labelled where it stands in uptake assays; also called tau1-441; full length tau
experimentDescription: SPR SCK, IgG on Protein A, tau in flow
parameter: kon (M⁻¹ s⁻¹)
Lab book: enter the figure in M⁻¹ s⁻¹, no units written.

Query: Assign kon to the following record: #44_VH4VK4_H12/pVL (antibody, V domains shown, also called Clone VH4_H12; #44_VH4_H12) VH: QVQLQESGPGLVKPSETLSLTCTVSGIDLSSYAMAWVRQAPGKGLEWIGAIDARGSTFYASWVKGRFTISKDTSKTTVDLQMTSLTAEDTATYFCARDSGAFDPWGQGTLVTVSS VL: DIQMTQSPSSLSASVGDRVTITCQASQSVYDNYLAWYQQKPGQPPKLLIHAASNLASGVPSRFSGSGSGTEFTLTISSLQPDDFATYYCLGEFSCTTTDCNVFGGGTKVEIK
Response: 4.16e+07

Query: Let me know recorded kon for #44_VH4VK4 humanised hIgG1 (antibody, V domains shown, also called VH4Vκ4; pVH/pVL) VH: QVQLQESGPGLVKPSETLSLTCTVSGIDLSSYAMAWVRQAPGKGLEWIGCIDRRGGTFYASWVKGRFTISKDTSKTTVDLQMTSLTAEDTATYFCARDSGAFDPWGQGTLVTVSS VL: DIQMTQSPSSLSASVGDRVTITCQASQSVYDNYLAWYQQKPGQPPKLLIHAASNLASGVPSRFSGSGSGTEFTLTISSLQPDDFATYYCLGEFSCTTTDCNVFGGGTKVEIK , thanks.
Response: 1.82e+06

Query: Identify measured kon corresponding to #44_VH4VK4_H04/pVL (antibody, V domains shown, also called VH04/pVL; Clone VH4_H04) VH: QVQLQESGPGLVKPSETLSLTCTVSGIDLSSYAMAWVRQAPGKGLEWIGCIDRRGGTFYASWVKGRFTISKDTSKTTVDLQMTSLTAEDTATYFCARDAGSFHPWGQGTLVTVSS VL: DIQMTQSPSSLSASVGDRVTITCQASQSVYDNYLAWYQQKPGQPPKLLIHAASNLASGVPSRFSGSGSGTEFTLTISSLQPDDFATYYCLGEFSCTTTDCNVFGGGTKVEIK
Response: 2.86e+06

Query: Please give measured kon of the following entry: #44_VH4VK4_H08/pVL (antibody, V domains shown, also called Clone VH4_H08; #44_VH4_H08) VH: QVQLQESGPGLVKPSETLSLTCTVSGIDLSSYAMAWVRQAPGKGLEWIGAIDAAGRTFYASWVKGRFTISKDTSKTTVDLQMTSLTAEDTATYFCARDSGAFDPWGQGTLVTVSS VL: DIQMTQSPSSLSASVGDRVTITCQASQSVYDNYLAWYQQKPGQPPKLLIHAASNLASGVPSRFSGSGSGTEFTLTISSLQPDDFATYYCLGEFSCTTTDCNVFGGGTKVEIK
Response: 426000
